# System: biotinyl-Val-oxazolone
# assay.explanation: self-aminoacylation, catalytic enhancement (BVO) (fold over background); higher = more active; k-Seq, kA / k0A0; sequences stand for … in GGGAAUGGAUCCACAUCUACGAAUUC…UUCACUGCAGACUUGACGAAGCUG
This sample holds only a part of the variants without activity.
assay.metric: self-aminoacylation

seq: AUUACCCUGGGCACCGAGUGA [Fam2.1 aminoacylation ribozyme variant]
target.or.test.system: biotinyl-Val-oxazolone
numeric.readout: 2.84
//
seq: GUUCAGCUAGGUCAUCGGGUG [Fam2.2 aminoacylation ribozyme variant]
target.or.test.system: biotinyl-Val-oxazolone
numeric.readout: 4.11
//
seq: CCACACUUCAAGCAAUCAGUU [Fam1B.1 aminoacylation ribozyme variant]
target.or.test.system: biotinyl-Val-oxazolone
numeric.readout: 1.29
//
seq: AAGUAAGCUAAUAGUCGCAAG [Fam3.1 aminoacylation ribozyme variant]
target.or.test.system: biotinyl-Val-oxazolone
numeric.readout: 1.33
//
seq: CUACUUCAAACACUCUGUCUG [Fam1A.1 aminoacylation ribozyme variant]
target.or.test.system: biotinyl-Val-oxazolone
numeric.readout: 0.724
//
seq: CUACUUCAAAAAAUCGGUGUG [Fam1A.1 aminoacylation ribozyme variant]
target.or.test.system: biotinyl-Val-oxazolone
numeric.readout: 0.814
//
seq: AAUCACCUGGGUCAUCGGGUG [Fam2.2 aminoacylation ribozyme variant]
target.or.test.system: biotinyl-Val-oxazolone
numeric.readout: 6.36
//
seq: AUUACUCUGGUCAUCUAGUGA [Fam2.1 aminoacylation ribozyme variant]
target.or.test.system: biotinyl-Val-oxazolone
numeric.readout: 4.34
//
seq: CCACUUCAAACAAUCGGCCUG [Fam1A.1 aminoacylation ribozyme variant]
target.or.test.system: biotinyl-Val-oxazolone
numeric.readout: 4.05
//
seq: ACUCACCUAGGUAAUCGGGUG [Fam2.2 aminoacylation ribozyme variant]
target.or.test.system: biotinyl-Val-oxazolone
numeric.readout: 2.85
//
seq: AAGUUUGCUAAUAUUAGCAAG [Fam3.1 aminoacylation ribozyme variant]
target.or.test.system: biotinyl-Val-oxazolone
numeric.readout: 1.24
//
seq: AUUACCCUGUUCAUGGAGUGA [Fam2.1 aminoacylation ribozyme variant]
target.or.test.system: biotinyl-Val-oxazolone
numeric.readout: 5.28
//
seq: CUACUUCAAACAAUCGGGCUC [Fam1A.1 aminoacylation ribozyme variant]
target.or.test.system: biotinyl-Val-oxazolone
numeric.readout: 1.17
//
seq: AUUACCCUGGCAAUCGAGUGA [Fam2.1 aminoacylation ribozyme variant]
target.or.test.system: biotinyl-Val-oxazolone
numeric.readout: 3.02
//
seq: CAACUUCAAACAAUCGGUCUU [Fam1A.1 aminoacylation ribozyme variant]
target.or.test.system: biotinyl-Val-oxazolone
numeric.readout: 1.5
//
seq: CCACACUUCUAGCAAUCUGUC [Fam1B.1 aminoacylation ribozyme variant]
target.or.test.system: biotinyl-Val-oxazolone
numeric.readout: 0.502
//
seq: AUACACCUAGGUGAUCGGGUG [Fam2.2 aminoacylation ribozyme variant]
target.or.test.system: biotinyl-Val-oxazolone
numeric.readout: 2.6
//
seq: CAACACUUCAAGCAAUCGGGC [Fam1B.1 aminoacylation ribozyme variant]
target.or.test.system: biotinyl-Val-oxazolone
numeric.readout: 2.23
//
seq: AAGUUUGCUAAUAGUCGCUAC [Fam3.1 aminoacylation ribozyme variant]
target.or.test.system: biotinyl-Val-oxazolone
numeric.readout: 0.697
//
seq: AUCCACCUAGGACAUCGGGUG [Fam2.2 aminoacylation ribozyme variant]
target.or.test.system: biotinyl-Val-oxazolone
numeric.readout: 3.38
//
seq: AUUACCCUGGUCAACGAGGGA [Fam2.1 aminoacylation ribozyme variant]
target.or.test.system: biotinyl-Val-oxazolone
numeric.readout: 1.56
//
seq: AUGCACCUAGGUCACCGGGUG [Fam2.2 aminoacylation ribozyme variant]
target.or.test.system: biotinyl-Val-oxazolone
numeric.readout: 3.68
//
seq: CUACCUCAAACAAUCAGUCUG [Fam1A.1 aminoacylation ribozyme variant]
target.or.test.system: biotinyl-Val-oxazolone
numeric.readout: 0.647
//
seq: GAACUUCAAACAAUCGGUCUG [Fam1A.1 aminoacylation ribozyme variant]
target.or.test.system: biotinyl-Val-oxazolone
numeric.readout: 1.66
//
seq: AAGUUUGCUAAUAGUGGCAAA [Fam3.1 aminoacylation ribozyme variant]
target.or.test.system: biotinyl-Val-oxazolone
numeric.readout: 1.04
//
seq: CCACUCUUCGAGCAAUCGGUC [Fam1B.1 aminoacylation ribozyme variant]
target.or.test.system: biotinyl-Val-oxazolone
numeric.readout: 1.24
//
seq: CUACUUCAGACAAUCGAUCUG [Fam1A.1 aminoacylation ribozyme variant]
target.or.test.system: biotinyl-Val-oxazolone
numeric.readout: 0.634
//
seq: AUUCACGUAGGUCAUCGGGUA [Fam2.2 aminoacylation ribozyme variant]
target.or.test.system: biotinyl-Val-oxazolone
numeric.readout: 3.72
//
seq: AAGUUUGCUGAUAGGCGCAAG [Fam3.1 aminoacylation ribozyme variant]
target.or.test.system: biotinyl-Val-oxazolone
numeric.readout: 0.765
//
seq: AUCACCCUGGUCAGCGAGUGA [Fam2.1 aminoacylation ribozyme variant]
target.or.test.system: biotinyl-Val-oxazolone
numeric.readout: 4.3
//
seq: AAGUUUGCUAAACGUCGCAAG [Fam3.1 aminoacylation ribozyme variant]
target.or.test.system: biotinyl-Val-oxazolone
numeric.readout: 0.542
//
seq: AUUACCCUCGUCAACGAGUGA [Fam2.1 aminoacylation ribozyme variant]
target.or.test.system: biotinyl-Val-oxazolone
numeric.readout: 2.06
//
seq: AAGUGUGCUAAUAGUCGCAAG [Fam3.1 aminoacylation ribozyme variant]
target.or.test.system: biotinyl-Val-oxazolone
numeric.readout: 1.36
//
seq: CUAAUUAAAACAAUCGGUCUG [Fam1A.1 aminoacylation ribozyme variant]
target.or.test.system: biotinyl-Val-oxazolone
numeric.readout: 0.738
//
seq: AUUACCCUGGUCAUCGAGUCU [Fam2.1 aminoacylation ribozyme variant]
target.or.test.system: biotinyl-Val-oxazolone
numeric.readout: 0.901

###

# System: biotinyl-Trp-oxazolone
# assay.explanation: self-aminoacylation, catalytic enhancement (BWO) (fold over background); higher = more active; k-Seq, kA / k0A0; sequences stand for … in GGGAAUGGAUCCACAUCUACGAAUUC…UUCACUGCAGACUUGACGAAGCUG
Fewer inactive variants are shown than the library holds.

seq: UCACACUUCAAGAAAUCGGUC [Fam1B.1 aminoacylation ribozyme variant]
target.or.test.system: biotinyl-Trp-oxazolone
self-aminoacylation: 6.06
--
seq: AAGUUUGCUAACAAUCGCAAG [Fam3.1 aminoacylation ribozyme variant]
target.or.test.system: biotinyl-Trp-oxazolone
self-aminoacylation: 0.717
--
seq: AUUAUCCCGGUCAUCGAGUGA [Fam2.1 aminoacylation ribozyme variant]
target.or.test.system: biotinyl-Trp-oxazolone
self-aminoacylation: 11
--
seq: CUACUUCAAACAAUCAGUCUU [Fam1A.1 aminoacylation ribozyme variant]
target.or.test.system: biotinyl-Trp-oxazolone
self-aminoacylation: 4.96
--
seq: AAGGUUGCUAAUAGUCACAAG [Fam3.1 aminoacylation ribozyme variant]
target.or.test.system: biotinyl-Trp-oxazolone
self-aminoacylation: 1.72

###

# Tested on: biotinyl-Phe-oxazolone
# assay.explanation: self-aminoacylation, catalytic enhancement (BFO) (fold over background); higher = more active; k-Seq, kA / k0A0; sequences stand for … in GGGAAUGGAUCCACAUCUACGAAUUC…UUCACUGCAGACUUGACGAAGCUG
Fewer inactive variants are shown than the library holds.
Entries and their self-aminoacylation values follow.

seq: AUUCAAUUAGGUCAUCGGGUG [Fam2.2 aminoacylation ribozyme variant]
target.or.test.system: biotinyl-Phe-oxazolone
self-aminoacylation: 42.1
//
seq: CAACUUCAAGCAAUCGGUCUG [Fam1A.1 aminoacylation ribozyme variant]
target.or.test.system: biotinyl-Phe-oxazolone
self-aminoacylation: 27.2
//
seq: CUACCUCAAACAAUCAGUCUG [Fam1A.1 aminoacylation ribozyme variant]
target.or.test.system: biotinyl-Phe-oxazolone
self-aminoacylation: 1.74
//
seq: AAGUUGGCUGAUAGUCGCAAG [Fam3.1 aminoacylation ribozyme variant]
target.or.test.system: biotinyl-Phe-oxazolone
self-aminoacylation: 2.34

###

# System: biotinyl-Phe-oxazolone
# assay.explanation: self-aminoacylation, catalytic enhancement (BFO) (fold over background); higher = more active; k-Seq, kA / k0A0; sequences stand for … in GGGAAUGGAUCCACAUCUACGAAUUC…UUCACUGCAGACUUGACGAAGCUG
Fewer inactive variants are shown than the library holds.
Binary call on self-aminoacylation: Met from 2 upward, Not met beneath that.

seq: AUUACCCUGGUCAGCCAGUGA [Fam2.1 aminoacylation ribozyme variant]
assigned.label: Met
--
seq: AUUCGCCUAGGUCAUCGGAUG [Fam2.2 aminoacylation ribozyme variant]
assigned.label: Not met
--
seq: AUAUCCCUGGUCAUCGAGUGA [Fam2.1 aminoacylation ribozyme variant]
assigned.label: Met
--
seq: CCACACAUCAAGGAAUCGGUC [Fam1B.1 aminoacylation ribozyme variant]
assigned.label: Not met
--
seq: GAGUUUGCUAAUAGUCGUAAG [Fam3.1 aminoacylation ribozyme variant]
assigned.label: Met
--
seq: AUUACCCGGGACAUCGAGUGA [Fam2.1 aminoacylation ribozyme variant]
assigned.label: Met
--
seq: ACUCACCUAGGUCAUCGGAUG [Fam2.2 aminoacylation ribozyme variant]
assigned.label: Not met
--
seq: CUACUUCAACCAUUCGGUCUG [Fam1A.1 aminoacylation ribozyme variant]
assigned.label: Not met
--
seq: AAGUUUGCUAAUAGUCGCCCG [Fam3.1 aminoacylation ribozyme variant]
assigned.label: Met
--
seq: AAGUAUGCUAAUAGUUGCAAG [Fam3.1 aminoacylation ribozyme variant]
assigned.label: Met
--
seq: AUUACCUUGGUCAUCGAUUGA [Fam2.1 aminoacylation ribozyme variant]
assigned.label: Not met
--
seq: CCUCACUCCAAGCAAUCGGUC [Fam1B.1 aminoacylation ribozyme variant]
assigned.label: Met
--
seq: UUUACCCUGGUCAUCGGGUGA [Fam2.1 aminoacylation ribozyme variant]
assigned.label: Met
--
seq: CCAGACUUCAAGCAAUCGGUG [Fam1B.1 aminoacylation ribozyme variant]
assigned.label: Met
--
seq: AAGUUGGCUAAUAGUCGCUAG [Fam3.1 aminoacylation ribozyme variant]
assigned.label: Met
--
seq: CCACACUUUAAGCAAUCGUUC [Fam1B.1 aminoacylation ribozyme variant]
assigned.label: Not met
--
seq: CCACAAUUCAAGCAAUGGGUC [Fam1B.1 aminoacylation ribozyme variant]
assigned.label: Not met
--
seq: AUUCAGAUAGGUCAUCGGGUG [Fam2.2 aminoacylation ribozyme variant]
assigned.label: Met
